Tested target: CYP2A13 (Homo sapiens, UniProt Q16696)
Sequence (Q16696 1-494): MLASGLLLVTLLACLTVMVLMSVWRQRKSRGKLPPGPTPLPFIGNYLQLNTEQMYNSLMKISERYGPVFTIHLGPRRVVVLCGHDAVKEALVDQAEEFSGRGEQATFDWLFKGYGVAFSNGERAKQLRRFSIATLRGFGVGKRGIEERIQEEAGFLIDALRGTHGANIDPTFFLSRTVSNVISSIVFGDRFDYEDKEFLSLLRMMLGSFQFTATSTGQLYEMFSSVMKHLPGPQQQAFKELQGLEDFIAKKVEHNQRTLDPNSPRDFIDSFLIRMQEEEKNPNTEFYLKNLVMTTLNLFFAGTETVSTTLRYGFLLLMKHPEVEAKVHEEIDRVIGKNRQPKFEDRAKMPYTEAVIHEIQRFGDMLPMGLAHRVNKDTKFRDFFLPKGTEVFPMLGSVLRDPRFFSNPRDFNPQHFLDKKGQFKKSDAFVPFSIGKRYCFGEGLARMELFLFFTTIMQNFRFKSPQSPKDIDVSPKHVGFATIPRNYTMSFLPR
Test: CYP2A13 inhibition, coumarin 7-hydroxylation (Umbelliferone fluorescence) in microsomes
Particulars: recombinant CYP2A13 + P450 reductase microsomes, coumarin 0.006 mM, 60 min at 37° C.; read-out: CYP2A13 inhibitor activity IC50
IC50 under 20 µM gets Condition met, anything at or over 20 µM gets Condition not met.

>>> print(df.to_string())
                                    molecule     classification
 0            CCCCCN(CC1CC1)C(=O)OC [Ex. 11]      Condition met
 1      CCCCCN(CCc1c[nH]cn1)C(=O)OC [Ex. 28]  Condition not met
 2        CCCCCN(CCc1cccnc1)C(=O)OC [Ex. 19]  Condition not met
 3  CCCCC/C(=C\C1CC1)C(N)=O [Ex. 41, (E)-2-(cyclopropylmethylene)heptanamide]      Condition met
 4         CCCCC/C(=C\C1CC1)C(=O)NC [Ex. 38]      Condition met
 5       CCCCCN(CCc1c[nH]cn1)C(C)=O [Ex. 27]  Condition not met
 6  CCCCCN(Cc1ccccn1)C(C)=O [Ex. 22, N-pentyl-N-(pyridin-2-ylmethyl)acetamide]      Condition met
 7  CCCCC/C(=C\c1ccccc1)C(=O)NC [Ex. 37, (E)-2-benzylidene-N-methylheptanamide]      Condition met
 8  CCCCCN(C(C)=O)C(=O)C1CC1 [Ex. 33, N-acetyl-N-pentylcyclopropanecarboxamide]      Condition met
 9          CCCCCN(Cc1ccncc1)C(=O)OC [Ex. 9]      Condition met
10  CCCCCN(Cc1ccccc1)C(=O)OC [Ex. 29, methyl benzyl(pentyl)carbamate]      Condition met
11   CCCCC/C(=C\c1ccccc1)C(=O)N(C)C [Ex. 39]      Condition met
12  CC(=O)N(CCc1ccccc1)Cc1ccccc1 [Ex. 35, N-benzyl-N-phenethylacetamide]  Condition not met
13         CCCCCN(CCc1cccnc1)C(C)=O [Ex. 18]  Condition not met
14        CCCCCN(CCc1ccccn1)C(=O)OC [Ex. 17]  Condition not met
15  CCCCCN(Cc1cccnc1)C(C)=O [Ex. 4, N-pentyl-N-(pyridin-3-ylmethyl)acetamide]      Condition met
16      CCCCC/C(=C\C1CC1)C(=O)N(C)C [Ex. 40]      Condition met
17  CCCCCN(CCc1ccccc1)C(C)=O [Ex. 3, N-pentyl-N-phenethylacetamide]      Condition met
18          CCCCCN(Cc1cccnc1)C(=O)OC [Ex. 5]  Condition not met
19  CCCCCN(Cc1ccncc1)C(C)=O [Ex. 8, N-pentyl-N-(pyridin-4-ylmethyl)acetamide]      Condition met
20  CCCCCN(CC1CC1)C(C)=O [Ex. 10, N-(cyclopropylmethyl)-N-pentylacetamide]      Condition met
21  CCCCCN(C(C)=O)c1ccccc1 [Ex. 2, N-pentyl-N-phenylacetamide]      Condition met
22  CCCCCN(Cc1ccccc1)C(C)=O [Ex. 1, N-benzyl-N-pentylacetamide]      Condition met
23        CCCCCN(CCc1ccncc1)C(=O)OC [Ex. 21]      Condition met
24         CCCCCN(CCc1ccccn1)C(C)=O [Ex. 16]  Condition not met
25  CCCCN(Cc1ccccc1)C(C)=O [Ex. 6, N-benzyl-N-butylacetamide]      Condition met
26  CCCCCN(C=O)CC1CC1 [Ex. 36, N-(cyclopropylmethyl)-N-pentylformamide]      Condition met
27  CCCCCN(C(C)=O)C(=O)OC(C)(C)C [Ex. 34, tert-butyl acetyl(pentyl)carbamate]      Condition met
28         CCCCCN(CCc1ccncc1)C(C)=O [Ex. 20]      Condition met

Data provenance: patent US20110200549A1
